# tested-target: G/T mismatch-specific thymine DNA glycosylase (Homo sapiens) (UniProt Q13569);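 further: human TDG cleavage of quenched duplex DNA oligonucleotides coupled to APE1, strand release read as fluorescence at 594 nm, inhibition of TDG activity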
# Sequence (Q13569 whole entry): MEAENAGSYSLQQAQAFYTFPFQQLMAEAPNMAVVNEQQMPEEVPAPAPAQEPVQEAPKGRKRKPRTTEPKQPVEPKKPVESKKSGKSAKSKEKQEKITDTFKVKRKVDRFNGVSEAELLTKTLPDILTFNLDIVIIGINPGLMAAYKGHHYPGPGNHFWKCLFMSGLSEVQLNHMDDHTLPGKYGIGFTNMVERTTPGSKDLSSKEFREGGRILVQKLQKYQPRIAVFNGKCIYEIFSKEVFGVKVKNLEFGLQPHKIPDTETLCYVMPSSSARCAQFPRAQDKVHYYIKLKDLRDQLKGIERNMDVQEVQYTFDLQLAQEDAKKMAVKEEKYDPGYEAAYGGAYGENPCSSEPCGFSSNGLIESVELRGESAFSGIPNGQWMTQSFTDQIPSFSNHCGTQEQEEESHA
# test-context: Compound Concentration 10.0 uM, Hit No
# Description: Inhibition of TDG by quantifying inhibition of TDG-mediated cleavage and dissociation of quenched duplex DNA oligonucleotides, measured as fluorescence at 594 nm. To generate a functional strand incision and increase turn-over this assay is coupled to APE1.
Mark f for inhibition values under 20%, and t for everything at or above.

INSERT INTO measurements (compound, qualitative_label) VALUES
  ('CC[C@H](C)C(=O)O[C@H]1C[C@@H](C)C=C2C=C[C@H](C)[C@H](CC[C@@H]3C[C@@H](O)CC(=O)O3)[C@H]21', 't'),
  ('O=C(Nc1nc2cccc(-c3ccc(CN4CCS(=O)(=O)CC4)cc3)n2n1)C1CC1', 't'),
  ('C[C@@H](CN1CCC(Cc2ccccc2)CC1)[C@@H](O)c1ccc(O)cc1', 'f'),
  ('O=C1N/C(=N/c2ccccc2F)S/C1=C\c1ccc(C(=O)O)cc1', 'f'),
  ('CC(C)c1c(CN(C)C(C)Cc2ccccc2)n(C)n(-c2ccccc2)c1=O (stereo not given)', 't'),
  ('CCCSc1nc(N[C@@H]2C[C@H]2c2ccc(F)c(F)c2)c2nnn([C@@H]3C[C@H](OCCO)[C@@H](O)[C@H]3O)c2n1', 'f'),
  ('Nc1c(C(=O)NCc2ccc(C(=O)NCCCC3CCCCC3)cc2)cnn1-c1ccccc1', 't'),
  ('O=C1NC(c2ccccn2)Sc2ccccc21 (stereo not given)', 't'),
  ('O[C@H]1CC[C@H](Nc2ncc3nc(Nc4c(F)cc(F)cc4F)n([C@H]4CCOC4)c3n2)CC1', 't'),
  ('CN(C)C(=O)c1cc2cnc(Nc3ccc(N4CCNCC4)cn3)nc2n1C1CCCC1', 't'),
  ('COc1c(C(=O)/C=C/c2ccccc2)c(O)c(OC)c2occc12', 'f'),
  ('CC(C)(C)c1ccc(NC(=O)N2CCN(c3ncccc3Cl)CC2)cc1', 'f'),
  ('Cc1cc(Cn2cnc3c2C[C@@H](C(=O)O)N(C(=O)C(c2ccccc2)c2ccccc2)C3)ccc1N(C)C', 't'),
  ('CCCCC(=O)N(Cc1ccc(-c2ccccc2-c2nnn[nH]2)cc1)[C@H](C(=O)O)C(C)C', 'f'),
  ('OCc1cc(C(O)CNCCCCCCOCCCCc2ccccc2)ccc1O (stereo not given)', 'f'),
  ('CCNC1(C(N)=O)CCN(c2ncnc3c2nc(-c2ccccc2Cl)n3-c2ccc(Cl)cc2)CC1', 'f'),
  ('CCCCN(CC)c1nc(C)nc2c1c(C)cn2-c1c(C)cc(C)cc1C', 'f'),
  ('COc1cc2nc(N3CCN(C(=O)COc4c(OC)cccc4C(C)C)CC3)nc(N)c2cc1OC', 'f'),
  ('Cc1cc(Cn2nnc3c(-c4ccco4)nc(N)nc32)ccc1N', 'f'),
  ('CC(C)NCC(O)COc1ccc(CCOCC2CC2)cc1 (stereo not given)', 't');
